system: B16 melanoma cells; experiment: in vitro inhibitory activity on tumor cell growth, B16 melanoma cells (Test Example 2); format: cell-based; conditions: B16 mouse melanoma cells, 37° C., 3 days, 5% CO2; concentration for 50% growth inhibitory effect
Counter-ions that a name gives are not always drawn.
Overview of reported IC50 (anti-tumor activity) across a group of compounds:
propertyName: IC50 (anti-tumor activity)

N=C(N)NCC(=O)Nc1ccc(-c2nc3cc(C(=O)Nc4ccc(N(CCCl)CCCl)cc4)ccc3[nH]2)cc1 [Compound 1001, dihydrochloride] | 0.36 µg/mL
N=C(N)NCC(=O)Nc1cccc(-c2nc3cc(C(=O)Nc4ccc(N(CCCl)CCCl)c(Cl)c4)ccc3[nH]2)c1 [Compound 2006, dihydrochloride] | 0.65 µg/mL
N=C(N)NCCCC(=O)Nc1cccc(-c2nc3cc(C(=O)Nc4ccc(N(CCCl)CCCl)c(Cl)c4)ccc3[nH]2)c1 [Compound 2016, dihydrochloride] | 2.08 µg/mL
